# Tested on: B. cereus
# PROTOCOL DETAILS: Broth microdilution MIC/MBC, B. cereus
# Format: cell-based
# RUN PARAMETERS: Bacillus cereus, B. cereus VD014 NR-22141; read-out: MIC
MEASURE NAME: MIC (µM)
Answer in µM, number only, no unit symbol.

Consider the following illustrative entries.
O=C(O)[C@H](Cc1ccccc1)N1C(=O)/C(=C/c2cccc(OC/C=C/c3ccc(Cl)c(Cl)c3)c2)SC1=S = 4
CC(=O)NC[C@H]1CN(c2ccc(N3CCOCC3)c(F)c2)C(=O)O1 [Linezolid, linezolid, reference compound] = 2
O=C(O)[C@H](Cc1ccccc1)N1C(=O)/C(=C/c2cccc(Cc3ccc(Cl)c(Cl)c3)c2)SC1=S = 4

Consider now this further molecule.
Task item: Report MIC, nothing else, for this molecule: O=C(O)[C@H](Cc1ccccc1)N1C(=O)/C(=C/c2cccc(-c3ccc(Cl)c(Cl)c3)c2)SC1=S
Reply: 2

====

# System: methicillin-resistant Staphylococcus aureus (MRSA)
# PROTOCOL DETAILS: Broth microdilution MIC/MBC, MRSA
# Type: cell-based
# RUN PARAMETERS: MRSA NRS 383
Here, each record is paired with measured MBC data.
Answer in µM, number only, no unit symbol.

O=C(O)[C@H](Cc1ccccc1)N1C(=O)/C(=C/c2cccc(Cc3ccc(Cl)c(Cl)c3)c2)SC1=S [Rh 3] = 8

Task item: Report MBC, nothing else, for this compound: O=C(O)[C@@H](Cc1ccccc1)N1C(=O)/C(=C/c2cccc(Cc3ccccc3)c2)SC1=S [Rh 7]
Reply: 16

Task item: Report MBC, nothing else, for this compound: O=C(O)[C@H](Cc1ccccc1)N1C(=O)/C(=C/c2cccc(-c3ccccc3)c2)SC1=S [Rh 5]
Reply: 16

====

Here, each record is paired with measured MBC data.
# Tested on: vancomycin resistant enterococci (VRE) E. faecium
# PROTOCOL DETAILS: Broth microdilution MIC/MBC, VRE E. faecium
# Format: cell-based
# RUN PARAMETERS: E. faecium E1071 NR-28978

Consider the following illustrative entries.
O=C(O)[C@@H](Cc1ccccc1)N1C(=O)/C(=C/c2cccc(Oc3ccc(F)cc3)c2)SC1=S [Rh 4] = 64 µM
O=C(O)[C@H](Cc1ccccc1)N1C(=O)/C(=C/c2cccc(OC/C=C/c3ccc(Cl)c(Cl)c3)c2)SC1=S [Rh 6] = > 64 µM

Task item: Report MBC, nothing else, for this molecule: CC(=O)NC[C@H]1CN(c2ccc(N3CCOCC3)c(F)c2)C(=O)O1 [Linezolid, linezolid, reference compound]
Reply: > 64 µM

Task item: Report MBC, nothing else, for this molecule: O=C(O)[C@H](Cc1ccccc1)N1C(=O)/C(=C/c2cccc(Cc3ccc(Cl)c(Cl)c3)c2)SC1=S [Rh 3]
Reply: > 64 µM

====

Here, each record is paired with measured MIC data.
# System: Escherichia coli O157:H7
# PROTOCOL DETAILS: MIC with/without PMBN, Escherichia coli O157:H7
# Assay type: cell-based
# RUN PARAMETERS: Escherichia coli O157:H7 ATCC 35150; PMBN (+) 4 μg/mL; read-out: MIC
Answer in µM, number only, no unit symbol.

O=C(O)[C@H](Cc1ccccc1)N1C(=O)/C(=C/c2cccc(-c3ccccc3)c2)SC1=S [Rh 5] = 8

Consider now this further molecule.
Task item: Report MIC, nothing else, for this molecule: O=C(O)[C@@H](Cc1ccccc1)N1C(=O)/C(=C/c2cccc(Cc3ccccc3)c2)SC1=S [Rh 7]
Reply: 8
